molecular target: Estrogen receptor (Homo sapiens) (UniProt P03372); test: blockers of coactivator recruitment to ERα – biochemical, LOPAC library, TR-FRET, primary screen (AID 694); settings: TR-FRET ERalpha-coactivator peptide binding, inhibition, at 15 µM, stronger effect = higher value;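 further: receptor was agonist-bound with estradiol present during the assay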
Sequence (P03372 whole entry, looked up): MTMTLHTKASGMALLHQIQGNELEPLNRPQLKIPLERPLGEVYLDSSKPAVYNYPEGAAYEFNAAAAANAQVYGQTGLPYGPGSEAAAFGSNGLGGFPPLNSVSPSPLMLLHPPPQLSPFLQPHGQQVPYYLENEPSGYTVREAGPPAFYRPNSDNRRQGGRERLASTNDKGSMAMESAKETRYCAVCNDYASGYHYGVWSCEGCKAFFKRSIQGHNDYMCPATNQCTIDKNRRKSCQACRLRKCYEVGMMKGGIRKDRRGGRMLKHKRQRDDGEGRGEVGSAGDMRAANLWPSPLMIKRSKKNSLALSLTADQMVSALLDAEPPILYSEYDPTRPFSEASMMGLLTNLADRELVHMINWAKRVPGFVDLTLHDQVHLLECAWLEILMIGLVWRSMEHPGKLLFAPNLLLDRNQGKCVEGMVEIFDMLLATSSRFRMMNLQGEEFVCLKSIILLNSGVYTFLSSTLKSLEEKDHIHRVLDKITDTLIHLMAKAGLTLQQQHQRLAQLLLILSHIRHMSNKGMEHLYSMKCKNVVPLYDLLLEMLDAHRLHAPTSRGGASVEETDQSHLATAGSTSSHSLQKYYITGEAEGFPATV
The whole screen tested about 1,300 compounds, of which about 25 (2%) were called active. The full list was thinned out, with actives kept by preference.
assay.readout: inhibition (%)
Answer format: numeric, % implied, no suffix.

compound | inhibition (%)
O=c1[nH]cnc2[nH]ncc12 | -0.71

What does the data say about its inhibition? Entry: "CCCCN1CCC(COC(=O)c2cc(Cl)c(N)c3c2OCCO3)CC1"
-4.44
